Test system: MCF7 breast
protocol_details: NCI tumour cell line growth inhibition, 48 h; in the data active = GI50 below about 0.43 µM; inactive = the rest
Form entry, call: pick from active, inactive

1. c1cc2ccc3cc2cc1CNCCOCCNCc1ccc2ccc(cc2c1)CNCCOCCNC3    inactive

Next, consider the following compound.
Q) Could you please tell me the result logged for O=C(CCCCCNC1=CC(=O)c2ccccc2C1=O)NCCC[Te]c1ccccc1 in this assay?
A) active

----------
Test system: A498 renal
protocol_details: NCI tumour cell line growth inhibition, 48 h; in the data active means GI50 below about 0.43 µM; inactive means the rest
Your reply should match one of these outcome classes. 1 (active), 0 (inactive)

1. NC(Cc1ccc(O)cc1)C(=O)N/N=C/c1ccc(N(CCCl)CCCl)cc1 (stereo not drawn)    0
2. O=C(CCCCCNC1=CC(=O)c2ccccc2C1=O)NCCC[Te]c1ccccc1    1
3. COC(=O)c1c2c(c(C)[n+]([O-])c1C)C(=O)C=C(NCc1ccc(Br)cc1)C2=O    0
4. Cc1ccc(C2NC(=S)N3C(c4ccc(C)cc4)NC(=S)N23)cc1 (stereo not drawn)    0
5. Cc1ccn2c(-c3csc(Nc4cccc(O)c4)n3)c(C)nc2c1    0

Q) Please share the test call associated with COc1ccccc1N(C(C)=O)C1=C(Cl)C(=O)c2ccccc2C1=O .
A) 0

Q) Hi, do you know how C[C@@H](Oc1cc(-c2cnn(C3CC4(CNC4)C3)c2)cnc1N)c1c(Cl)ccc(F)c1Cl came out in this test?
A) 0

Q) In this assay, the call recorded for COc1ccc(C2=NNC(c3cc(Cc4ccc(O)c(C5CC(c6ccc(OC)cc6)=NN5)c4)ccc3O)C2)cc1 (stereo not drawn) was what?
A) 0

Q) Lab log entry: COc1cc(C2CC(=O)c3c(C)nn(-c4nc5ccccc5[nH]4)c3C2)cc(OC)c1OC (stereo not drawn) — outcome as called in the assay?
A) 0

Q) Check the results log: what was the call for Oc1[nH]c2ccc(Cl)cc2c1/C=c1/ccc2c(c1)N=C(c1ccc(C(F)(F)F)cc1)N=2 ?
A) 0

Q) Called result for CCN1CCN(CC(=O)Nc2nc3ccc(NCc4ccc(C)cc4)cc3s2)CC1
A) 0

Q) Assay result, entry O=C1NC(=O)C(N2CCc3ccccc32)=C1c1ccc(Cl)cc1 — outcome?
A) 0

Q) Call for entry O=C1c2ccccc2-c2c1c1c(O)cccc1n2CCCc1ccccc1 :
A) 0

Q) Outcome? CC[C@@]1(O)C(=O)OCc2c1cc1n(c2=O)Cc2cc3c(Cl)c4c(cc3nc2-1)OCO4
A) 1

Q) Per the records of this test, what outcome belongs to Nc1ncnc2c1nc(N)n2C1OC(CO)C(O)C1O (stereo not drawn) ?
A) 0

Q) Assay result, entry CC(=O)Nc1c(I)c(C(=O)O)c(I)c(N(C)C(C)=O)c1I — outcome?
A) 0

Q) Please state the recorded outcome for this compound: O=c1[nH]cc(CO)c(=O)[nH]1
A) 0

Q) Entry N#Cc1ccc(N2Cc3cc(Cl)ccc3OC3=C2C(=O)N(Cc2ccc(F)cc2)C3=O)cc1 : call = ?
A) 0
